Biological target: Histone-arginine methyltransferase CARM1 (Homo sapiens)
Sequence (Q86X55 whole entry): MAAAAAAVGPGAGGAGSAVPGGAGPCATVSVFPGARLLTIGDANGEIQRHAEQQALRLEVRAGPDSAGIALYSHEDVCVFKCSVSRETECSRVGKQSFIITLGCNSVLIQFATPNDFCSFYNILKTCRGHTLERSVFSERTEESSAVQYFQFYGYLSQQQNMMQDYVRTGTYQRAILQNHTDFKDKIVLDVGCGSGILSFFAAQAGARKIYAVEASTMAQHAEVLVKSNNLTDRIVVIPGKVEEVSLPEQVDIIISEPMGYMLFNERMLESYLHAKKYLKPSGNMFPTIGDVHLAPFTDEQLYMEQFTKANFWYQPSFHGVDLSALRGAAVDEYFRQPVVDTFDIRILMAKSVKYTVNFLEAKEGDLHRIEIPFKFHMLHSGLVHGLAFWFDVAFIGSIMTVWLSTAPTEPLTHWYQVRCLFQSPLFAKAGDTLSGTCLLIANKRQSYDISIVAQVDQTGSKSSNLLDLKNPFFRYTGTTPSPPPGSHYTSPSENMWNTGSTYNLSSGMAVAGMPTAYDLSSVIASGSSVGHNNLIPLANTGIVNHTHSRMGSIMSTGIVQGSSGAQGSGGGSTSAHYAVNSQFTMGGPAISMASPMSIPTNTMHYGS
measurement type: Ki (nM)
Expressed in nM, but write only the number.

-- ask Endpoint output: Ki of CC(C)Oc1ccc(-c2c[nH]cc2CN(C)CCN)cc1 . Value?
-- reply 23

Numbers sourced from ChEMBL document CHEMBL5715953.
